Molecular target: Prostaglandin G/H synthase 2 (Homo sapiens, UniProt P35354)
Sequence (P35354 whole entry): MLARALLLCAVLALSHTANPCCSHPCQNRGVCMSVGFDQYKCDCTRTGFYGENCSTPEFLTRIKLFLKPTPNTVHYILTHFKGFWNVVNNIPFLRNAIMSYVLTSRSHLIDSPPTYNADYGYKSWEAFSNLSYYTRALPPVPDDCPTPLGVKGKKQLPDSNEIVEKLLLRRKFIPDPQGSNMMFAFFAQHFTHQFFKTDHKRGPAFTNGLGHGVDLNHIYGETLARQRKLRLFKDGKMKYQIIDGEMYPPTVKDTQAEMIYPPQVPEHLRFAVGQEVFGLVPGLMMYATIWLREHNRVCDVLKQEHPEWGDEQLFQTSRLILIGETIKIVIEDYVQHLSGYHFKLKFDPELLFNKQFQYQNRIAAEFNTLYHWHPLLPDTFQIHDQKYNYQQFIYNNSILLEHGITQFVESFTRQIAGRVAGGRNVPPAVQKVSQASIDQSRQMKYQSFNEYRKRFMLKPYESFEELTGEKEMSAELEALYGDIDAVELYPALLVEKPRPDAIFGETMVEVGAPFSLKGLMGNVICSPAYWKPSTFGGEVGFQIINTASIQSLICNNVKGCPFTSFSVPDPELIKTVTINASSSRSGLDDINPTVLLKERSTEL
Classes based on IC50: range A (below 600 nM), range B (600 nM to below 10000 nM), range C (10000 nM or more)

Band for the recorded IC50 of O=S(=O)(Nc1ccncc1Nc1ccc(O)cc1)C(F)(F)F ?
range C

Band for the recorded IC50 of Cc1cc(C)cc(Nc2cnccc2NS(C)(=O)=O)c1 ?
range C

Band for the recorded IC50 of Cc1cc(C)cc(Nc2cnccc2NS(=O)(=O)C(F)(F)F)c1 ?
range B

Band for the recorded IC50 of Cc1cc(Nc2cnccc2NS(=O)(=O)C(F)(F)F)ccc1Br ?
range A

Band for the recorded IC50 of Cc1ccc(Nc2cnccc2NS(=O)(=O)C(F)(F)F)cc1Br ?
range A

Band for the recorded IC50 of N#Cc1cccc(Nc2cnccc2NS(=O)(=O)C(F)(F)F)c1 ?
range C

Band for the recorded IC50 of Cc1ccc(Nc2cnccc2NS(=O)(=O)C(F)(F)F)cc1Cl ?
range B

Band for the recorded IC50 of O=S(=O)(Nc1ccncc1Nc1cccc(I)c1)C(F)(F)F ?
range A

Band for the recorded IC50 of CS(=O)(=O)Nc1ccncc1Nc1ccc(F)cc1 ?
range C

Band for the recorded IC50 of O=S(=O)(Nc1ccncc1Nc1ccc(O)c(Br)c1)C(F)(F)F ?
range C

Band for the recorded IC50 of O=S(=O)(Nc1ccncc1Nc1ccccc1)C1CC1 ?
range C

Band for the recorded IC50 of O=S(=O)(Nc1ccncc1Nc1ccc(F)cc1)C(F)(F)F ?
range A

Band for the recorded IC50 of Cc1ccc(Nc2cnccc2NS(=O)(=O)C(F)(F)F)cc1C ?
range A

Band for the recorded IC50 of O=S(=O)(Nc1ccncc1Nc1ccc(F)c(Cl)c1)C(F)(F)F ?
range B

Band for the recorded IC50 of O=S(=O)(Nc1ccncc1Nc1cccc(F)c1)C(F)(F)F ?
range A

Band for the recorded IC50 of Cc1ccc(Nc2cnccc2NS(C)(=O)=O)cc1C ?
range C

Band for the recorded IC50 of O=S(=O)(Nc1ccncc1Nc1ccc(F)c(Br)c1)C(F)(F)F ?
range B

Band for the recorded IC50 of O=S(=O)(C1CC1)N(c1ccncc1Nc1ccccc1)S(=O)(=O)C1CC1 ?
range C
